# ASSAYED_TARGET: SCD-1 (Homo sapiens, UniProt O00767)
# Construct: 50 μg of protein from a HepG2 cell P2 pellet; endogenous in cells; host or cells: HepG2 cells (P2 pellet)
# Sequence (O00767 whole entry): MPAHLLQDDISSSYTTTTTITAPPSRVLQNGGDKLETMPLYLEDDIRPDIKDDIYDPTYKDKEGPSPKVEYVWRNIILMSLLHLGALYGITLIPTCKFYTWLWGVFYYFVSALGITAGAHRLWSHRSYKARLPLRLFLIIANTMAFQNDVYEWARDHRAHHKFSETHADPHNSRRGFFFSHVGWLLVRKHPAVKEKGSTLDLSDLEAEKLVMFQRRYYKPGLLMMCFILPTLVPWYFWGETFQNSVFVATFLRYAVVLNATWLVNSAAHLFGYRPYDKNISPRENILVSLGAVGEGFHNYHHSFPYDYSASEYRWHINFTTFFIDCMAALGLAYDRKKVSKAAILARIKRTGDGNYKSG
# ASSAY_OVERVIEW: Stearoyl-CoA desaturase assay (HepG2 cell P2 pellet)
# Type: biochemical
# STUDY_CONDITIONS: Table 2, compounds of formula (Ib); protein from HepG2 cell P2 pellet, 20 μM stearoyl-CoA, 15 min at 25° C.; read-out: Ave IC50
TEST_READOUT: IC50

Some molecules with known IC50 results, for comparison:
CC(C)(C)c1ccc(CN2CCC3(CCN(c4ncc(C(=O)NC[C@H](O)CO)s4)CC3)Oc3ccccc32)cc1 [Compound 126]	0.5 to 49 nM
O=C(O)CCNC(=O)c1cnc(N2CCC3(CC2)CCN(Cc2cccc(C(F)(F)F)c2)c2ccccc2O3)s1 [Compound 129]	0.5 to 49 nM
C[C@H](O)CNC(=O)c1cnc(N2CCC3(CC2)CCN(Cc2ccc(C(C)(C)C)cc2)c2cccc(F)c2O3)s1 [Compound 110]	0.5 to 49 nM
Cc1ccc(CNC(=O)c2cnc(N3CCC4(CC3)CCN(Cc3ccc(C(C)(C)C)cc3)c3cccc(F)c3O4)s2)o1 [Compound 104]	50 to 499 nM
CCN(C)C(=O)c1cnc(N2CCC3(CC2)CCN(Cc2ccc(C(C)(C)C)cc2)c2ccccc2O3)s1 [Compound 66]	50 to 499 nM
N#Cc1cnc(N2CCC3(CC2)CCN(Cc2cccc(C(F)(F)F)c2)c2ccccc2O3)s1 [Compound 127]	0.5 to 49 nM

Challenge: Using known records, supply IC50 for O=C(O)c1cnc(N2CCC3(CC2)CCN(Cc2cccc(C(F)(F)F)c2)c2ccccc2O3)s1 [Compound 54]
Response given: 0.5 to 49 nM
